A set of compounds tested on N(G),N(G)-dimethylarginine dimethylaminohydrolase 1 (Homo sapiens, UniProt O94760), with measured pIC50:
Please note pIC50 is a logarithmic value: minus log10 of concentration in mol/L. Answer with that number alone.

Per the records, this compound ( C#CCNC(=N)NCCC[C@H](N)C(=O)O ) has pIC50 equal to 4.26

Per the records, this compound ( COCCNC(=N)NCCC[C@H](N)C(=O)O ) has pIC50 equal to 4.54

Per the records, this compound ( CCCNC(=N)NCCC[C@H](N)C(=O)O ) has pIC50 equal to 3.55

Per the records, this compound ( C/C=C/CC(=N)NCCC[C@H](N)C(=O)O ) has pIC50 equal to 4.10

Per the records, this compound ( CCCC(=N)NCCC[C@H](N)C(=O)O ) has pIC50 equal to 4.15
